Test system: Escherichia coli TOP10
Assay: shrunken log2 fold change of peptide-encoding DNA abundance (4.5 h post-induction vs induction); higher = less antimicrobial activity (less host growth inhibition)
Conditions: time post-induction: 4.5 h; library: site-saturation at positions 5, 18, 19, 20
measure: shrunken log2 fold change

RRIRQRPPRLPRPRPRPCMTPRP
0.0109
RRIRQRPPRLPRPRPRPMNQPRP
-0.437
RRIRARPPRLPRPRPRPLRMPRP
0.655
RRIRRRPPRLPRPRPRPLGLPRP
0.363
RRIRERPPRLPRPRPRPQERPRP
0.061
RRIRFRPPRLPRPRPRPAVYPRP
-0.35
RRIRPRPPRLPRPRPRPAGIPRP
-0.0533
RRIRSRPPRLPRPRPRPIMRPRP
0.73
RRIRMRPPRLPRPRPRPAIFPRP
0.243
RRIRGRPPRLPRPRPRPFKNPRP
0.243
RRIRWRPPRLPRPRPRPNKEPRP
-0.0697
RRIRDRPPRLPRPRPRPDLPPRP
0.337
RRIRLRPPRLPRPRPRPYESPRP
-0.957
RRIRRRPPRLPRPRPRPVDQPRP
0.348
RRIRTRPPRLPRPRPRPGRLPRP
0.171

---

Tested on: Escherichia coli TOP10
Experiment: shrunken log2 fold change of peptide-encoding DNA abundance (4.5 h post-induction vs induction); higher = less antimicrobial activity (less host growth inhibition)
Details: time post-induction: 4.5 h; library: site-saturation at positions 5, 18, 19, 20
Label rule, in plain words: shrunken log2 fold change of -0.008 and up is Met, under -0.008 is Not met.

RRIRVRPPRLPRPRPRPWKSPRP
Met
RRIRIRPPRLPRPRPRPHLHPRP
Not met
RRIRSRPPRLPRPRPRPKIGPRP
Not met
RRIRWRPPRLPRPRPRPVGPPRP
Met
RRIRHRPPRLPRPRPRPLKQPRP
Not met
RRIRPRPPRLPRPRPRPSWKPRP
Met
RRIRYRPPRLPRPRPRPLGIPRP
Not met
RRIRCRPPRLPRPRPRPTFEPRP
Not met
RRIRTRPPRLPRPRPRPYMGPRP
Not met
RRIRPRPPRLPRPRPRPWGLPRP
Met
RRIRKRPPRLPRPRPRPLVCPRP
Met
RRIRTRPPRLPRPRPRPNTKPRP
Not met
RRIRPRPPRLPRPRPRPICSPRP
Not met
RRIRERPPRLPRPRPRPTYKPRP
Not met

---

Tested on: Escherichia coli TOP10
Experiment: shrunken log2 fold change of peptide-encoding DNA abundance (4.5 h post-induction vs induction); higher = less antimicrobial activity (less host growth inhibition)
Conditions: time post-induction: 4.5 h; library: site-saturation at positions 5, 18, 19, 20
measure: shrunken log2 fold change

RRIRDRPPRLPRPRPRPPFMPRP
0.042
RRIRSRPPRLPRPRPRPKCGPRP
0.397
RRIRSRPPRLPRPRPRPRRAPRP
0.41
RRIRLRPPRLPRPRPRPVMCPRP
0.142
RRIRCRPPRLPRPRPRPKYLPRP
-0.34
RRIRWRPPRLPRPRPRPAYFPRP
0.125
RRIRNRPPRLPRPRPRPFHNPRP
-0.12
RRIRCRPPRLPRPRPRPWSIPRP
0.0457
RRIRYRPPRLPRPRPRPKWVPRP
-0.0135
RRIRLRPPRLPRPRPRPQWMPRP
-0.0896
RRIRFRPPRLPRPRPRPMYAPRP
-0.406
RRIRLRPPRLPRPRPRPTLTPRP
0.26
RRIRARPPRLPRPRPRPSQAPRP
0.0359
RRIRSRPPRLPRPRPRPNHSPRP
-0.736
RRIRHRPPRLPRPRPRPPTWPRP
0.0706

---

System: Escherichia coli TOP10
Assay: shrunken log2 fold change of peptide-encoding DNA abundance (4.5 h post-induction vs induction); higher = less antimicrobial activity (less host growth inhibition)
Details: time post-induction: 4.5 h; library: site-saturation at positions 5, 18, 19, 20
Criterion: shrunken log2 fold change meeting or surpassing 0.004. Met: met. Not met: not met.

RRIRFRPPRLPRPRPRPEANPRP
met
RRIRHRPPRLPRPRPRPERSPRP
met
RRIRCRPPRLPRPRPRPCYNPRP
not met
RRIRYRPPRLPRPRPRPNFCPRP
not met
RRIRVRPPRLPRPRPRPSIHPRP
not met
RRIRFRPPRLPRPRPRPCQWPRP
met
RRIRIRPPRLPRPRPRPVNKPRP
not met
RRIRYRPPRLPRPRPRPKTLPRP
not met
RRIRRRPPRLPRPRPRPSFHPRP
not met
RRIRFRPPRLPRPRPRPLCVPRP
not met
RRIRTRPPRLPRPRPRPWAIPRP
not met
RRIRKRPPRLPRPRPRPIHRPRP
not met
RRIRYRPPRLPRPRPRPENVPRP
not met
RRIRKRPPRLPRPRPRPFFMPRP
met
RRIRYRPPRLPRPRPRPKMYPRP
not met
RRIRQRPPRLPRPRPRPEHSPRP
not met
RRIRMRPPRLPRPRPRPSYRPRP
not met
RRIRSRPPRLPRPRPRPSKFPRP
not met
RRIRERPPRLPRPRPRPVCFPRP
not met
RRIRCRPPRLPRPRPRPGPSPRP
met
RRIRERPPRLPRPRPRPHYDPRP
not met
RRIRVRPPRLPRPRPRPHCHPRP
not met
RRIRCRPPRLPRPRPRPSHKPRP
not met
RRIRWRPPRLPRPRPRPMDHPRP
not met
RRIRTRPPRLPRPRPRPGMGPRP
met
RRIRQRPPRLPRPRPRPAFRPRP
met
RRIRLRPPRLPRPRPRPYYYPRP
not met
RRIRRRPPRLPRPRPRPLPAPRP
met
RRIRWRPPRLPRPRPRPPYAPRP
met
RRIRERPPRLPRPRPRPCEDPRP
met
RRIRARPPRLPRPRPRPLYVPRP
not met

---

Tested on: Escherichia coli TOP10
Experiment: shrunken log2 fold change of peptide-encoding DNA abundance (4.5 h post-induction vs induction); higher = less antimicrobial activity (less host growth inhibition)
Conditions: time post-induction: 4.5 h; library: site-saturation at positions 5, 18, 19, 20
measure: shrunken log2 fold change

RRIRYRPPRLPRPRPRPHEEPRP
-0.018
RRIRWRPPRLPRPRPRPGRIPRP
0.298
RRIRIRPPRLPRPRPRPYAHPRP
-0.184
RRIRGRPPRLPRPRPRPLSCPRP
0.276
RRIRIRPPRLPRPRPRPHRYPRP
-0.171
RRIRIRPPRLPRPRPRPAPTPRP
0.219
RRIRSRPPRLPRPRPRPWGNPRP
-0.236
RRIRGRPPRLPRPRPRPCKHPRP
0.112
RRIRLRPPRLPRPRPRPKICPRP
0.0221
RRIRLRPPRLPRPRPRPQNKPRP
-0.432
RRIRVRPPRLPRPRPRPTQRPRP
0.565
RRIRSRPPRLPRPRPRPFCSPRP
-0.212
RRIRMRPPRLPRPRPRPPSLPRP
0.619
RRIRFRPPRLPRPRPRPLWAPRP
-0.151
RRIRIRPPRLPRPRPRPNYQPRP
-0.43

---

shrunken log2 fold change by entry:
System: Escherichia coli TOP10
Test: shrunken log2 fold change of peptide-encoding DNA abundance (4.5 h post-induction vs induction); higher = less antimicrobial activity (less host growth inhibition)
Conditions: time post-induction: 4.5 h; library: site-saturation at positions 5, 18, 19, 20
measure: shrunken log2 fold change

RRIRRRPPRLPRPRPRPPKSPRP
0.37
RRIRMRPPRLPRPRPRPDFWPRP
0.778
RRIRDRPPRLPRPRPRPAGMPRP
0.411
RRIRIRPPRLPRPRPRPVAMPRP
-0.0657
RRIRARPPRLPRPRPRPKRSPRP
0.427
RRIRMRPPRLPRPRPRPYPCPRP
0.0288
RRIRSRPPRLPRPRPRPICGPRP
-0.056
RRIRSRPPRLPRPRPRPQDSPRP
-0.164
RRIRRRPPRLPRPRPRPNQWPRP
0.128
RRIRKRPPRLPRPRPRPNQQPRP
0.101
RRIRGRPPRLPRPRPRPYMEPRP
-0.164
RRIRIRPPRLPRPRPRPSQMPRP
-0.0716
RRIRQRPPRLPRPRPRPYIQPRP
-0.32
RRIRARPPRLPRPRPRPVMIPRP
0.0471
RRIRHRPPRLPRPRPRPGVHPRP
-0.9

---

Reported shrunken log2 fold change is given for each of the following sequences.
System: Escherichia coli TOP10;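 further: peptides expressed intracellularly from a pBAD plasmid library in pooled LB shake-flask culture, induced with 0.3% L-arabinose, DNA abundance read by NGS, three biological replicates, DESeq2 with apeglm shrinkage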
Assay: shrunken log2 fold change of peptide-encoding DNA abundance (4.5 h post-induction vs induction); higher = less antimicrobial activity (less host growth inhibition)
Conditions: time post-induction: 4.5 h; library: site-saturation at positions 5, 18, 19, 20
measure: shrunken log2 fold change

RRIRERPPRLPRPRPRPPAFPRP
0.331
RRIRFRPPRLPRPRPRPHWYPRP
-0.343
RRIRTRPPRLPRPRPRPPRCPRP
0.391
RRIRPRPPRLPRPRPRPVINPRP
-0.626
RRIRDRPPRLPRPRPRPADLPRP
-0.0491
RRIRMRPPRLPRPRPRPIWKPRP
0.00523
RRIRIRPPRLPRPRPRPQYIPRP
-0.181
RRIRCRPPRLPRPRPRPKYSPRP
-0.898
RRIRTRPPRLPRPRPRPCLPPRP
-0.0953
RRIRSRPPRLPRPRPRPMWYPRP
-0.0284
RRIRFRPPRLPRPRPRPWGGPRP
0.162
RRIRMRPPRLPRPRPRPSPQPRP
0.716
RRIRDRPPRLPRPRPRPAWWPRP
0.388
RRIRGRPPRLPRPRPRPDNMPRP
-0.185
RRIRCRPPRLPRPRPRPFFKPRP
-0.197
